- Tested on: 556581-035-R-J1-PDC complex spheroid growth;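 further: spheroids exposed to agents for 7 days before viability read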
- assay-name: Anticancer human tumor 556581-035-R-J1-PDC patient-derived ovarian carcinoma cell line growth inhibition [Asc]
- cond: curve of first compound; second compound 0.0316 µM
Measured IC50 values are reported for all entries that follow.
The figure you give is taken to be in µM; do not add the unit.

Worked cases, answers included:
O=C(c1ccc(F)c(F)c1Nc1ccc(I)cc1F)N1CC(O)([C@@H]2CCCCN2)C1 + CNC(C)C(=O)NC1CN(S(=O)(=O)c2cccc(S(=O)(=O)N3CCC4CCC(C(=O)NC(c5ccccc5)c5ccccc5)N4C(=O)C(NC(=O)C(C)NC)C3)c2)CCC2CCC(C(=O)NC(c3ccccc3)c3ccccc3)N2C1=O ... 0.187
COc1c(OCCCN2CCOCC2)ccc2c3n(c(=NC(=O)c4cnc(N)nc4)nc12)CCN3 + CNC(C)C(=O)NC1CN(S(=O)(=O)c2cccc(S(=O)(=O)N3CCC4CCC(C(=O)NC(c5ccccc5)c5ccccc5)N4C(=O)C(NC(=O)C(C)NC)C3)c2)CCC2CCC(C(=O)NC(c3ccccc3)c3ccccc3)N2C1=O ... 0.022

// next entry
IC50 recorded for this molecule, C=C(F)C(=O)N1CCN(c2nc(OCC3CCCN3C)nc3c2CCN(c2cccc4cccc(Cl)c24)C3)CC1CC#N (configuration not stated) + CNC(C)C(=O)NC1CN(S(=O)(=O)c2cccc(S(=O)(=O)N3CCC4CCC(C(=O)NC(c5ccccc5)c5ccccc5)N4C(=O)C(NC(=O)C(C)NC)C3)c2)CCC2CCC(C(=O)NC(c3ccccc3)c3ccccc3)N2C1=O , is 1.88
